Reference source: the supplement of paper PMC8007513

Recorded growth yield, one value per entry.
test system: Trichoderma virens ATCC 9645; assay: growth yield (OD600) relative to untreated control; higher = less growth inhibition; conditions: compound concentration: 100 uM; 40 h
Where a name gives a salt, the structure may show the parent alone. Among all 1,300 compounds or so, about 75 (6%) showed an effect of 50% or more. The full list was thinned out, with strong results kept by preference.

COMPOUND | growth yield
CC[C@H](C)C(=O)O[C@H]1C[C@@H](C)C=C2C=C[C@H](C)[C@H](CC[C@@H]3C[C@@H](O)CC(=O)O3)[C@H]21 [Lovastatin] | 94.8%
CCCSc1ccc2[nH]c(NC(=O)OC)nc2c1 [Albendazole] | 73.2%
CNCC[C@@H](Oc1cccc2ccccc12)c1cccs1 [(R)-Duloxetine hydrochloride] | 99.1%
CCCCC(CC)CNC(=N)NC(=N)NCCCCCCNC(=N)NC(=N)NCC(CC)CCCC (stereo not drawn) [Alexidine dihydrochloride] | 1.91%
COc1cc([S+](C)[O-])ccc1-c1nc2cccnc2[nH]1 (stereo not drawn) [Sulmazole] | 99.4%
CCCOc1ccc2[nH]c(NC(=O)OC)nc2c1 [Oxibendazol] | 16.4%
COCCOC(=O)C1=C(C)NC(C)=C(C(=O)OC(C)C)C1c1cccc([N+](=O)[O-])c1 (stereo not drawn) [Nimodipine] | 95.3%
CCOC(=O)C1=C(C)NC(C)=C(C(=O)OC)C1c1cccc(Cl)c1Cl (stereo not drawn) [Felodipine] | 92.8%
Cc1cc2cc3c(C)cc(=O)oc3c(C)c2o1 [Trioxsalen] | 42.1%
CC(C)NC[C@@H](O)COc1ccc(CC(N)=O)cc1 [(R)-(+)-Atenolol] | 102%
C#C[C@]1(O)CC[C@H]2[C@@H]3[C@H](C)CC4=C(CCC(=O)C4)[C@H]3CC[C@@]21C [Tibolone] | 88.3%
CC1(C)[C@@H](OC(=O)CCC(=O)O)CC[C@]2(C)[C@H]3C(=O)C=C4[C@@H]5C[C@@](C)(C(=O)O)CC[C@]5(C)CC[C@@]4(C)[C@]3(C)CC[C@@H]12 [Carbenoxolone disodium salt] | 95%
CCOC(=O)C1=C(COCCN)NC(C)=C(C(=O)OC)C1c1ccccc1Cl (stereo not drawn) [Amlodipine] | 105%
CCC(=O)[C@@]1(C)[C@H](C)C[C@H]2[C@@H]3CCC4=CC(=O)C=C[C@]4(C)[C@H]3[C@@H](O)C[C@@]21C [Rimexolone] | 112%
CN(C)[C@@H]1C(O)=C(C(N)=O)C(=O)[C@@]2(O)C(O)=C3C(=O)c4c(O)cccc4[C@@](C)(O)[C@H]3C[C@@H]12 [Tetracycline hydrochloride] | 95.9%
CCC(C)n1ncn(-c2ccc(N3CCN(c4ccc(OCC5COC(Cn6cncn6)(c6ccc(Cl)cc6Cl)O5)cc4)CC3)cc2)c1=O (stereo not drawn) [Itraconazole] | 4.77%
CCn1cc(C(=O)O)c(=O)c2cnc(N3CCNCC3)nc21 [Pipemidic acid] | 94.4%
CCC[C@H](N[C@@H](C)C(=O)N1[C@H](C(=O)O)C[C@@H]2CCCC[C@@H]21)C(=O)OCC [Perindopril] | 101%
Nc1ncn(C2OC(CO)C(O)C2O)c(=O)n1 (stereo not drawn) [Azacytidine-5] | 89.4%
Cc1ccc2c(c1)c1c3n2CCNC3CCC1 (stereo not drawn) [Pirlindole mesylate] | 101%
Oc1c(Cl)cc(Cl)c(Cl)c1Cc1c(O)c(Cl)cc(Cl)c1Cl [Hexachlorophene] | 25.3%
CC1(C)O[C@@H]2C[C@H]3[C@@H]4CCC5=CC(=O)C=C[C@]5(C)[C@H]4[C@@H](O)C[C@]3(C)[C@]2(C(=O)CO)O1 [Desonide] | 109%
CC(=O)N1CCN(c2ccc(OCC3COC(Cn4ccnc4)(c4ccc(Cl)cc4Cl)O3)cc2)CC1 (stereo not drawn) [Ketoconazole] | 2.22%

###

test system: Trichoderma virens ATCC 9645; experiment: growth yield (OD600) relative to untreated control; higher = less growth inhibition; conditions: compound concentration: 100 uM; 72 h
Counter-ions that a name gives are not always drawn. Out of some 1,300 compounds screened, about 75 (6%) showed an effect of 50% or more. This is one part of a sample in which strong results are shown more often than they occur.
Recorded growth yield, one value per entry.

COMPOUND | growth yield [%]
CN(C)CCOC(=O)COc1ccc(Cl)cc1 [Meclofenoxate hydrochloride] | 92.1
O=C(O)CCNC(=O)c1ccc(/N=N/c2ccc(O)c(C(=O)O)c2)cc1 [Balsalazide Sodium] | 102
Clc1ccc(C(Cn2ccnc2)OCc2c(Cl)cccc2Cl)c(Cl)c1 (stereo unspecified) | 1.68
Cc1onc(-c2ccccc2)c1-c1ccc(S(N)(=O)=O)cc1 | 104
Cn1c(=O)c2c(ncn2CC(=O)O)n(C)c1=O | 95.1
CN(C)CC/C=C1/c2ccccc2Sc2ccc(Cl)cc21 [Chlorprothixene hydrochloride] | 90.8

###

tested on: Trichoderma virens ATCC 9645; experiment: growth yield (OD600) relative to untreated control; higher = less growth inhibition; details: compound concentration: 100 uM; 40 h
Where a name gives a salt, the structure may show the parent alone. In all, about 1,300 compounds went through this assay and about 75 (6%) showed an effect of 50% or more. The list comes from a sample in which strong results are over-represented; it also holds close analogues and randomly drawn compounds.

COMPOUND | UNITS LABEL | growth yield
CC=CC1=C(C(=O)O)N2C(=O)[C@@H](NC(=O)[C@H](N)c3ccc(O)cc3)[C@H]2SC1 | % | 100
Cc1cc(/C=C/c2ccc3cc(N(C)C)ccc3[n+]2C)c(C)n1-c1ccccc1 [Pyrvinium pamoate] | % | 124
CCCCc1oc2ccccc2c1C(=O)c1cc(I)c(OCCN(CC)CC)c(I)c1 [Amiodarone hydrochloride] | % | 3.18
CC(C(=O)O)c1ccc2c(c1)[nH]c1ccc(Cl)cc12 (stereo unspecified) | % | 40.7
CN(CCOc1ccc(NS(C)(=O)=O)cc1)CCc1ccc(NS(C)(=O)=O)cc1 [Dofetilide] | % | 100
CCN1CCCC(OC(=O)C(c2ccccc2)c2ccccc2)C1 (stereo unspecified) [Piperidolate hydrochloride] | % | 106
OCCN1CCN(CCCN2c3ccccc3Sc3ccc(C(F)(F)F)cc32)CC1 [Fluphenazine dihydrochloride] | % | 44
CCN(CC)CCOC(=O)C1(c2ccc([N+](=O)[O-])cc2)CCCC1 [Nitrocaramiphen hydrochloride] | % | 101
CCCCCCCN(CC)CCCC(O)c1ccc(NS(C)(=O)=O)cc1 (stereo unspecified) [Ibutilide fumarate] | % | 100
N=C(N)NC(=O)Cc1c(Cl)cccc1Cl [Guanfacine hydrochloride] | % | 97.1
CCCCOC(=O)c1ccc(N)cc1 | % | 66.9

###

system: Trichoderma virens ATCC 9645; test: growth yield (OD600) relative to untreated control; higher = less growth inhibition; conditions: compound concentration: 100 uM; 40 h
Structures can show the parent of a compound that is named as a salt. In all, about 1,300 compounds went through this assay and about 75 (6%) showed an effect of 50% or more. This excerpt belongs to a sample that is enriched for strong results.
Recorded growth yield, one value per entry.

COMPOUND | UNITS LABEL | growth yield
CCOC(=O)c1ccc(OC(=O)CCCCCNC(=N)N)cc1 [Gabexate mesilate] | % | 76.6
Cc1onc(-c2ccccc2)c1C(=O)N[C@@H]1C(=O)N2[C@@H]1SC(C)(C)[C@@H]2C(=O)O [Oxacillin sodium] | % | 111
O=C(O)C[C@H](O)C[C@H](O)/C=C/c1c(C2CC2)nc2ccccc2c1-c1ccc(F)cc1 | % | 4.13
Cc1noc(NS(=O)(=O)c2ccc(N)cc2)c1C | % | 87.4
CCOC(=O)[C@@](C)(N)Cc1ccc(O)c(O)c1 [Methyldopate hydrochloride] | % | 104
Nc1nc(=O)c2nc(CNc3ccc(C(=O)N[C@@H](CCC(=O)O)C(=O)O)cc3)cnc2[nH]1 | % | 102
CSc1ccc2c(c1)C(N1CCN(C)CC1)Cc1ccccc1S2 (stereo not drawn) [Methiothepin maleate] | % | 43.5
Cc1cccc(N(C)C(=S)Oc2ccc3ccccc3c2)c1 [Tolnaftate] | % | 0
CN[C@@H]1[C@H](O[C@H]2[C@H](O[C@H]3[C@H](O)[C@@H](O)[C@H](N=C(N)N)[C@@H](O)[C@@H]3N=C(N)N)O[C@@H](C)[C@]2(O)C=O)O[C@@H](CO)[C@H](O)[C@H]1O [Streptomycin sulfate] | % | 103
CCCCNc1ccc(C(=O)OCCOCCOCCOCCOCCOCCOCCOCCOCCOC)cc1 [Benzonatate] | % | 92.1
Cc1cc(NS(=O)(=O)c2ccc(N)cc2)no1 | % | 40
Nc1cc(N2CCCCC2)nc(N)[n+]1[O-] | % | 104
Cc1cc(C)nc(NS(=O)(=O)c2ccc(N)cc2)n1 [Sulfamethazine sodium salt] | % | 106
CC(C)n1c(/C=C/C(O)CC(O)CC(=O)O)c(-c2ccc(F)cc2)c2ccccc21 (stereo not drawn) [Fluvastatin sodium salt] | % | 1.91
CCN(Cc1ccncc1)C(=O)C(CO)c1ccccc1 (stereo not drawn) [Tropicamide] | % | 99.6
CC(C)N1CCN(c2ccc(OCC3COC(Cn4cncn4)(c4ccc(Cl)cc4Cl)O3)cc2)CC1 (stereo not drawn) | % | 82.4
COc1ccc2[nH]c([S+]([O-])Cc3ncc(C)c(OC)c3C)nc2n1 (stereo not drawn) | % | 98.8
CO[C@H]1C[C@H](O[C@H]2[C@H](C)[C@@H](O[C@@H]3O[C@H](C)C[C@H](N(C)C)[C@H]3OC(C)=O)[C@@H](C)C[C@@]3(CO3)C(=O)[C@H](C)[C@@H](OC(C)=O)[C@@H](C)[C@@H](C)OC(=O)[C@@H]2C)O[C@@H](C)[C@@H]1OC(C)=O | % | 101
